# STUDY TARGET: CDK4/cyclinD (Homo sapiens (Human), UniProt P11802)
# Sequence (P11802 whole entry, species assumed): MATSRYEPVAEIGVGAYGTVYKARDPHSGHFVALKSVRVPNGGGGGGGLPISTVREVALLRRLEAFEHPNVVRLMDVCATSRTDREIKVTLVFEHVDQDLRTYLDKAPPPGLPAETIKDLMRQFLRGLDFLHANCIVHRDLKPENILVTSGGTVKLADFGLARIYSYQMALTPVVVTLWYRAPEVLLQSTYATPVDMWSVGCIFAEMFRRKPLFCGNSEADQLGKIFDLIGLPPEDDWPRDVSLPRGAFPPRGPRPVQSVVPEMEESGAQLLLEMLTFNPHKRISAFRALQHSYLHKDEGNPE
# Sequence (P24385 whole entry partner, species assumed): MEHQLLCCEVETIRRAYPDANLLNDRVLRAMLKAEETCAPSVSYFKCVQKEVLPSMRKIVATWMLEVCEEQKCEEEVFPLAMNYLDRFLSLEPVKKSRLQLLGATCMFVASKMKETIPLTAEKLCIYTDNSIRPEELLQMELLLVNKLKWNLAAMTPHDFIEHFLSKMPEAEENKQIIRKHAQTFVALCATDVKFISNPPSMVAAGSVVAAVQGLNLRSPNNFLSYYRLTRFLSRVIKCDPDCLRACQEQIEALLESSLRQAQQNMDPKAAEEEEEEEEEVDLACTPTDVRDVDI
# ASSAY OVERVIEW: CDK4/CyclinD kinase enzymatic assay (Caliper LabChip)
# CONDITION LABEL: tested as HCl salts, 12-point dose response, at the Km for ATP, three hours
MEASURED METRIC: pIC50
Remember, pIC50 is on a log scale: it is -log10 of the molar concentration.

Give a short answer stating reported pIC50 for "O=C1NCCn2c1cc1cnc(Nc3ccc(N4CCNCC4)cn3)nc12" . 5.98
